- target.or.system: EP2 subtype of the human PGE2 receptor (hEP2 receptor) (Homo sapiens)
- Sequence (P43116 whole entry): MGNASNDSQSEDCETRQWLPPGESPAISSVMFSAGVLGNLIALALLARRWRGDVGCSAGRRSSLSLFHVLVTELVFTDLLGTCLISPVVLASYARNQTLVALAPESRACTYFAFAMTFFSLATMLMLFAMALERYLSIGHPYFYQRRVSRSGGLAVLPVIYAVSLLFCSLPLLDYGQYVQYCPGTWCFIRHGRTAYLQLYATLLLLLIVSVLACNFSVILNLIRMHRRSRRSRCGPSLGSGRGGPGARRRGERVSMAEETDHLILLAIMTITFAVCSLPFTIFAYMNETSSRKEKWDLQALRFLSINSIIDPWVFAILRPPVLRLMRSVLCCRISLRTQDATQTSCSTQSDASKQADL
- protocol.description: cAMP antagonism test, human prostaglandin E2 (subtype EP2) receptor signal
pIC50: −log10 of the molar value.
Reported pIC50 values for a set of compounds

compound	target.or.system	parameter.measured	value
Cc1c(C(=O)NCC(F)(F)F)ccc2nn(CC3CCN(C(=O)c4ccc(Oc5ccc(F)c(F)c5)cc4)CC3)cc12 [Example E137]	EP2 subtype of the human PGE2 receptor (hEP2 receptor) (Homo sapiens)	pIC50	< 7.30

Exam item: Specify measured pIC50 for COCCNC(=O)c1ccc2nn(CC3CCN(C(=O)c4ccc(Oc5ccccn5)cc4)CC3)cc2c1C [Example E162] .
Marked response: < 7.30

Exam item: Give the reported pIC50 for this compound. Cc1c(C(=O)NCCOCC2CC2)ccc2nn(CC3CCN(C(=O)c4ccc(Oc5ccc(F)cc5)cc4)CC3)cc12 [Example E61]
Marked response: < 7.30

Exam item: Give reported pIC50 value for Cc1c(C(=O)NCC(F)(F)F)ccc2nn(CC3CCN(C(=O)c4ccc(Oc5ccc(C(F)(F)F)cc5)cc4)CC3)cc12 [Example E126]
Marked response: < 7.30

Exam item: // fetch pIC50 given entry COCCNC(=O)c1ccc2nn(CC3CCN(C(=O)c4ccc(-c5ccc(C(F)(F)F)cc5)cc4)CC3)cc2c1C [Example E173]
Marked response: < 7.30

Exam item: Give the reported value of pIC50 for this record: COCCNC(=O)c1ccc2nn(CC3CCN(C(=O)c4ccc(C(C)(C)C)cc4)CC3)cc2c1C [Example E155]
Marked response: < 7.30

Exam item: Determine its reported pIC50: COCCNC(=O)c1ccc2nn(CC3CCN(C(=O)c4ccc(Oc5ccc(C(F)(F)F)cc5)cc4)CC3)cc2c1C [Example E16]
Marked response: < 7.30

###

- target.or.system: EP2 subtype of the human PGE2 receptor (hEP2 receptor) (Homo sapiens)
- protocol.description: cAMP antagonism test, human prostaglandin E2 (subtype EP2) receptor signal
pIC50: −log10 of the molar value.
compounds and their reported pIC50

Examples with answers:
chemical.structure	pIC50
COCCNC(=O)c1ccc2nn(CC3CCN(C(=O)c4ccc(-c5ccc(OC)cn5)cc4)CC3)cc2c1C	< 7.30
Cc1ccc(C(=O)N2CCC(Cn3cc4c(C)c(C(=O)NCCOC(C)C)ccc4n3)CC2)cc1	< 7.30
COCCNC(=O)c1ccc2nn(CC3CCN(C(=O)c4ccc(Oc5ccc(C(C)(C)C)cc5)cc4)CC3)cc2c1C	< 7.30

Exam item: Report its pIC50 with EP2 subtype of the human PGE2 receptor (hEP2 receptor) (Homo sapiens) as the test system: COCCNC(=O)c1ccc2nn(CC3CCN(C(=O)c4ccc(-c5ccccc5)c(C)c4)CC3)cc2c1C
Marked response: < 7.30

Exam item: For EP2 subtype of the human PGE2 receptor (hEP2 receptor) (Homo sapiens), give pIC50 of the listed compound: COCCNC(=O)c1ccc2nn(CC3CCN(C(=O)c4ccc(OC(F)(F)F)cc4)CC3)cc2c1C
Marked response: < 7.30

Exam item: Find the measured pIC50 of COCCNC(=O)c1ccc2nn(CC3CCN(C(=O)c4ccc(C(F)(F)F)cc4F)CC3)cc2c1C with EP2 subtype of the human PGE2 receptor (hEP2 receptor) (Homo sapiens) as test system.
Marked response: < 7.30

Exam item: Send back EP2 subtype of the human PGE2 receptor (hEP2 receptor) (Homo sapiens) pIC50 of Cc1ccc(C(=O)N2CCC(Cn3cc4c(C)c(C(=O)NCCOCC(F)(F)F)ccc4n3)CC2)cc1 only.
Marked response: < 7.30

Exam item: Provide the reported pIC50 (system: EP2 subtype of the human PGE2 receptor (hEP2 receptor) (Homo sapiens)) for COCCNC(=O)c1ccc2nn(CC3CCN(C(=O)c4ccc(-c5cc(F)cc(F)c5)c(C)c4)CC3)cc2c1C
Marked response: < 7.30
